Entry source: patent US7687603B2

- protocolDetails: MTT cytotoxicity study
- Type: cell-based
- conditionDetails: mammalian cells, FIG. 13, read-out: cells survived (viability)
Numbered stars: 1 amine (or outer) side, 2 acyl side, 3 side chain; on linkers, the order of the positions; unused ones are H or OH. Side chains are listed from the residue outwards. Peptide text beside a SMILES is read from it. * marks the point of attachment. Doxorubicin(3'-N) = COc1cccc2c1C(=O)c1c(O)c3c(c(O)c1C2=O)C[C@@](O)(C(=O)CO)C[C@@H]3O[C@H]1C[C@H](N*)[C@H](O)[C@H](C)O1; Suc = O=C(CCC(=O)[*:2])[*:1]
property: viability

Summary for this compound, COc1cccc2c1C(=O)c1c(O)c3c(c(O)c1C2=O)C[C@@](O)(C(=O)CO)C[C@@H]3O[C@H]1C[C@H](NC(=O)CCC(=O)N[C@@H](CCCNC(=N)N)C(=O)N[C@@H](CCCNC(=N)N)C(=O)NCCCC[C@H](NC(=O)[C@H](CCCNC(=N)N)NC(=O)[C@H](CCCNC(=N)N)NC(C)=O)C(=O)N[C@@H](CCCNC(=N)N)C(=O)N[C@@H](CCCNC(=N)N)C(=O)N[C@@H](CCCNC(=N)N)C(=O)N[C@@H](CCCNC(=N)N)C(N)=O)[C@H](O)[C@H](C)O1 [DOX-PTD] (Ac-RRK([Arg-Arg-Suc-Doxorubicin(3'-N)])RRRR-NH2) : viability is < 40%
